Data origin: paper PMC5838563

- Tested on: HIV‐1 LTR (Jurkat^Tat LTR‐luciferase cell line)
- ASSAY_TEXT: Jurkat^Tat LTR‐luciferase reporter assay for HIV‐1 latency reversal
- Type: cell-based
- CONDITION_NOTES: Human immunodeficiency virus 1; 24 h treatment, percent activation relative to PMA
REPORTED_PROPERTY: log10(EC50) (log10 of the value in µM)
Answers are given as log10 of EC50 in µM.

COMPOUND: Cl.Nc1ccc(-c2ccc3ccccc3n2)cc1 [PH03, 2‐(4‐aminophenyl)quinoline hydrochloride]
log10(EC50): 0.10

COMPOUND: Cn1c(C=Cc2c[nH]c3ccccc23)nc2ccccc2c1=O
log10(EC50): -0.85

COMPOUND: Cc1cc(I)cnc1NC(=S)NC(=O)c1ccco1
log10(EC50): 0.41

# input Look up log10(EC50) of CC(=O)Oc1ccccc1N(C=C1Sc2ccccc2C1=O)C(C)=O and report it.
# output -0.10

# input Look up log10(EC50) of COc1cccc(-n2nnc(C(=O)Nc3ccc(C)cc3)c2C)c1 and report it.
# output 0.77
